# assay-details: viability loss in pontine glioma line – cell-based, SU-DIPG-XXV, MIPE5.0, CellTiter-Glo, qHTS, dose response (AID 1347065);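 note: cells exposed to compound for 48 hours before ATP readout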
# run-parameters: CellTiter-Glo ATP luminescence
Inconclusive results are not listed. Active and inactive are the calls of the source. No cut-off is given here; in the data, nearly all actives have AC50 up to about 26 µM.
Please state which outcome applies, choosing from yes (1) (active), no (0) (inactive)

Input line: Record lookup: outcome of this test for `NC(=O)c1ccc(I)c([N+](=O)[O-])c1` ?
Output line: no (0)

Input line: Queued: `CCCCCCCc1ccc(CCc2cccc(O)c2C(=O)O)cc1`
Output line: no (0)

Input line: What about this compound? `Cn1cnc2c(F)c(Nc3ccc(Br)cc3Cl)c(C(=O)NOCCO)cc21`
Output line: yes (1)

Input line: Do the same for COC1CCC(N(C(=O)C2CCC(C)CC2)c2cc(C3=CCCCC3)sc2C(=O)O)CC1 (centres undefined) please
Output line: no (0)

Input line: Next entry: `CC[C@]12C=CCN3CC[C@@]4(c5cc([C@@]6(C(=O)OC)C[C@H]7C[C@@H](C(C)(F)F)CN(Cc8c6[nH]c6ccccc86)C7)c(OC)cc5N(C)[C@H]4[C@@](O)(C(=O)OC)[C@@H]1OC(C)=O)[C@@H]32`
Output line: yes (1)

Input line: Try `CC(C)[C@H](O)C(=O)N[C@@H](C)C(=O)N[C@@H]1C(=O)N(C)CCc2ccccc21` next.
Output line: no (0)

Continuing:
Input line: Called result for `C=CC(=O)Nc1cccc(Nc2nc(Nc3ccc(OCCOC)cc3)ncc2F)c1`
Output line: yes (1)

Input line: Param item: CN1CCN(C2CCC(n3cc(-c4ccc(Oc5ccccc5)cc4)c4c(N)ncnc43)CC2)CC1 (centres undefined)
Output line: yes (1)

Input line: Next: `Cc1cc(O)c(-c2ccc([C@@H](C)CN(C)C)cc2)c2c1[nH]c(=O)c1sccc12`
Output line: yes (1)

Input line: And what about the compound `Cc1ccc2nc(NCCN)c3ncc(C)n3c2c1` ?
Output line: yes (1)

Input line: Ok, now `CCc1cccc2c3c([nH]c12)[C@@](CC)(CC(=O)O)OCC3`
Output line: no (0)

Input line: Also need `COc1cccc2c1C(=O)c1c(O)c3c(c(O)c1C2=O)C[C@@](O)(/C(CO)=N/NC(=O)CCCCCN1C(=O)C=CC1=O)C[C@@H]3O[C@H]1C[C@H](N)[C@H](O)[C@H](C)O1` , thanks.
Output line: yes (1)

Input line: Thanks! And `COc1cc(C(C)C)c(Oc2cnc(NC(CO)CO)nc2N)cc1I` ?
Output line: no (0)

Input line: Field entry: `CN1CC(=O)NC1=NC(=O)Nc1cccc(Cl)c1`
Output line: no (0)

Input line: Try this compound next: CCCCNc1ncc2c(-c3ccc(F)cc3)nn(CC3CCC(N)CC3)c2n1 (centres undefined)
Output line: yes (1)

Input line: Try `CS(=O)(=O)N1CCC(NC(=O)c2[nH]ncc2NC(=O)c2c(Cl)cccc2Cl)CC1` next.
Output line: yes (1)

Input line: Record: `Cc1c(CCOc2ccc(C(=O)O)cc2)c2cc(Cl)ccc2n1C(c1ccccc1)c1ccccc1`
Output line: no (0)

Input line: What do you have for `CC(C)(C)c1[nH]cnc1/C=c1\[nH]c(=O)/c(=C/c2ccccc2)[nH]c1=O` ?
Output line: yes (1)

Input line: Would you kindly repeat that for `CC(=O)Nc1nc(C)c(-c2ccc(Cl)c(S(=O)(=O)NCCO)c2)s1` ?
Output line: yes (1)
